molecular target: Bcl-xL, Q07817; test: peptide SPOT array, c-Myc-tagged receptor at 1 uM or 100 nM, anti-c-Myc-Cy3
Sequence (Q07817 1-209): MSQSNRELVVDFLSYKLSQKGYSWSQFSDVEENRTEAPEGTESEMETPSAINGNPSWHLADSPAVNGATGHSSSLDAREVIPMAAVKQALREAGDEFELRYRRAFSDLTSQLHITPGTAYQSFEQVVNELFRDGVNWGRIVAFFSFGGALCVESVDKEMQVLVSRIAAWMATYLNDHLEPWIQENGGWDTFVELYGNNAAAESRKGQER
Would you mind labelling by SPOT signal as a fraction of Bim BH3's signal on the same receptor and array? At or over 0.07 is label 1, under is label 0.

Does the binder GFANHDVVEVLRNAGQVVHLTLVRRK [INADL] have recorded SPOT signal as a fraction of Bim BH3's signal on the same receptor and array that is 0.07 or more?
label 1

Does the binder PDKRLTLSQIYQYVADNFPFYNKSKA [FOXI1] have recorded SPOT signal as a fraction of Bim BH3's signal on the same receptor and array that is 0.07 or more?
label 1

Does the binder LREVRESIRFDRQVGRDWVQRRREAL have recorded SPOT signal as a fraction of Bim BH3's signal on the same receptor and array that is 0.07 or more?
label 1

Does the binder TAGLRPGARLDRVCGQTLPSLRPEAA [SIPA1] have recorded SPOT signal as a fraction of Bim BH3's signal on the same receptor and array that is 0.07 or more?
label 1

Does the binder SSDVIAVCQSLRQMAEKCQQDPESCW [MMS19] have recorded SPOT signal as a fraction of Bim BH3's signal on the same receptor and array that is 0.07 or more?
label 0

Does the binder VFDDLRGSVSLSWVLDSTGVILVLTT [SORT1] have recorded SPOT signal as a fraction of Bim BH3's signal on the same receptor and array that is 0.07 or more?
label 0

Does the binder KDSVEGICSKIYHISLEYVKRIREKH [PCIF1] have recorded SPOT signal as a fraction of Bim BH3's signal on the same receptor and array that is 0.07 or more?
label 1

Does the binder GRQVEDAGRVLEGISKSISYDLDGEE [FIBIN] have recorded SPOT signal as a fraction of Bim BH3's signal on the same receptor and array that is 0.07 or more?
label 0

Does the binder QRLINLVGESLRLLLNTFVALSDLRC [BAT3] have recorded SPOT signal as a fraction of Bim BH3's signal on the same receptor and array that is 0.07 or more?
label 1

Does the binder RGAMLSLATGLAHSGSDLSLLVPEIE [FAM115A] have recorded SPOT signal as a fraction of Bim BH3's signal on the same receptor and array that is 0.07 or more?
label 1

Does the binder CLSCDLCGCRDGEVGRRLYYKLGRKL [LMO2] have recorded SPOT signal as a fraction of Bim BH3's signal on the same receptor and array that is 0.07 or more?
label 1

Does the binder RAELTGLARRDADRARKLQETNLRAV [RIMBP3] have recorded SPOT signal as a fraction of Bim BH3's signal on the same receptor and array that is 0.07 or more?
label 1

Does the binder GLFSATSGVDLKYVLDTFGQEVRPVS [DDX7] have recorded SPOT signal as a fraction of Bim BH3's signal on the same receptor and array that is 0.07 or more?
label 0

Does the binder LLDFFMVSILFSKLLDLLHKLQFVLT [PCNXL2] have recorded SPOT signal as a fraction of Bim BH3's signal on the same receptor and array that is 0.07 or more?
label 1

Does the binder EKVLIFGGDILKFAGDALLALWRVER [ADCY10] have recorded SPOT signal as a fraction of Bim BH3's signal on the same receptor and array that is 0.07 or more?
label 0

Does the binder SKFVILSAHKLVFIGDTLTRQVTAQD [NEDD9] have recorded SPOT signal as a fraction of Bim BH3's signal on the same receptor and array that is 0.07 or more?
label 0

Does the binder APEEDFFSIHDRIVGDWTEGLFNACG [CYBB] have recorded SPOT signal as a fraction of Bim BH3's signal on the same receptor and array that is 0.07 or more?
label 0

Does the binder YGKVKFTAEELSNMASELAKYGLQLP [IQGAP3] have recorded SPOT signal as a fraction of Bim BH3's signal on the same receptor and array that is 0.07 or more?
label 0

Does the binder RDPQGWVAGNDSARGDGAAGFTLPGF [MST1R] have recorded SPOT signal as a fraction of Bim BH3's signal on the same receptor and array that is 0.07 or more?
label 0

Does the binder ELDEDDLEAELDALLDELLADEDSSY [CHMP5] have recorded SPOT signal as a fraction of Bim BH3's signal on the same receptor and array that is 0.07 or more?
label 0

Does the binder LREVRESIRFLRQVGRDWVQRRREAL have recorded SPOT signal as a fraction of Bim BH3's signal on the same receptor and array that is 0.07 or more?
label 1

Does the binder AHGVRDVSKELVGLAEHAATRLRFTK [TMEM151A] have recorded SPOT signal as a fraction of Bim BH3's signal on the same receptor and array that is 0.07 or more?
label 1

Does the binder FKAWGKFGGADCRYADEMKEIQERQR [PURB] have recorded SPOT signal as a fraction of Bim BH3's signal on the same receptor and array that is 0.07 or more?
label 1

Does the binder ARELEEISERLEEASGATSAQIEMNK [MYH13] have recorded SPOT signal as a fraction of Bim BH3's signal on the same receptor and array that is 0.07 or more?
label 0

Does the binder RGRTRGWVQTLARMLRRTRGPVERAA [C6orf223] have recorded SPOT signal as a fraction of Bim BH3's signal on the same receptor and array that is 0.07 or more?
label 1

Does the binder TREAQKMAQLLVVLGKIINMKIKLFM [UGGT2] have recorded SPOT signal as a fraction of Bim BH3's signal on the same receptor and array that is 0.07 or more?
label 1
